Data provenance: patent US7629340B2

assay: Replicon Assay (luciferase, ET cell line)
Assay type: cell-based, HCV
experimental.conditions: Hepatitis C virus; % inhibition of replication relative to no compound control, test concentration of 10 μM; ET cells, luciferase read 48-72 hours; read-out: % inhib at 10 uM
Classification field: enter Y for inhibition at 10 µM values not below 80%, N for values below it.

{"columns": ["molecule", "assigned.label"],
 "data": [
  ["COc1ccc(-c2cccc(NC(=O)[C@@H]3CCCN3C(=O)OCc3ccccc3)c2)cc1", "N"],
  ["Nc1cccc(-c2cccc(NC(=O)[C@@H]3CCCN3C(=O)OCc3ccccc3)c2)c1", "Y"],
  ["O=C(Nc1cccc(Br)c1)[C@@H]1CCCN1C(=O)OCc1ccccc1", "N"],
  ["O=C(Nc1ccc(-c2cccs2)cc1)[C@@H]1CCCN1C(=O)OCc1ccccc1", "N"]
]}

# input // inclusive: inhibition at 10 µM at least 80%? input: O=C(Nc1ccc(Cc2nc3ccccc3[nH]2)cc1)[C@@H]1CCCN1C(=O)OCc1ccccc1 (stereo in doubt)
# output N

# input Hello, I need to know if O=C(Nc1ccc(-c2ccccc2)cc1)[C@@H]1CCCN1C(=O)OCc1ccccc1 has measured inhibition at 10 µM not below 80%. Thanks!
# output N

# input hey, is inhibition at 10 µM for this one >= 80%? O=C(Nc1cccc(-c2cccc3cc[nH]c23)c1)[C@@H]1CCCN1C(=O)OCc1ccccc1
# output Y

# input Could you please find out whether O=C(Nc1cc(Oc2ccccc2)cc(Oc2cccnc2)c1)[C@@H]1CCCN1C(=O)OCc1ccccc1 has inhibition at 10 µM that meets 80% or exceeds it?
# output Y

# input Hello, I need to know if COc1ccc2nc(NC(=O)c3ccc(NC(=O)[C@@H]4CCCN4C(=O)OCc4ccccc4)cc3)sc2c1 has measured inhibition at 10 µM not below 80%. Thanks!
# output N

# input Tell me whether inhibition at 10 µM is at least 80% here: COc1ccccc1-c1cccc(NC(=O)[C@@H]2CCCN2C(=O)OCc2ccccc2)c1
# output N

----------
assay: Replicon Assay (luciferase, ET cell line)
Assay type: cell-based, HCV
experimental.conditions: Hepatitis C virus; % inhibition of replication relative to no compound control, test concentration of 10 μM; ET cells, luciferase read 48-72 hours; read-out: % inhib at 10 uM
Description: A cell line, ET (Huh-lucubineo-ET) was used for screening of compounds of the present invention for HCV RNA dependent RNA polymerase. […] Luciferase activity were measured 48-72 hours later by adding a lysis buffer and the substrate (Catalog number Glo-lysis buffer E2661 and Bright-Glo luciferase system E2620 Promega, Madison, Wis.). […] Under the same condition, cytotoxicity of the compounds was determined using cell proliferation reagent, WST-1 (Roche, Germany). […]
measured.parameter: inhibition at 10 µM (%)
All answers are understood in %, so give the number only.

{"columns": ["compound", "unit.text", "reported.result"],
 "data": [
  ["O=C(Nc1cccc(-c2ccc3[nH]ccc3c2)c1)[C@@H]1CCCN1C(=O)OCc1ccccc1", "%", 98.6],
  ["COc1ccc(-c2ccc(NC(=O)[C@@H]3CCCN3C(=O)OCc3ccccc3)cc2)c(OC)c1", "%", 87.8],
  ["O=C(O)/C=C/c1ccc(-c2cccc(NC(=O)[C@@H]3CCCN3C(=O)OCc3ccccc3)c2)cc1", "%", 40.9],
  ["O=C(Nc1cccc(-c2ccc3cc(O)ccc3c2)c1)[C@@H]1CCCN1C(=O)OCc1ccccc1", "%", 99.9],
  ["Cc1cccc(Oc2cc(NC(=O)[C@@H]3CCCN3C(=O)OCc3ccccc3)cc([N+](=O)[O-])c2)c1 (stereo in doubt)", "%", 33.8],
  ["O=C(Nc1ccc(-c2nnc(-c3ccco3)o2)cc1)[C@@H]1CCCN1C(=O)OCc1ccccc1", "%", 5.45]
]}

Proceed to the following item.
# input Give inhibition at 10 µM for the following compound: O=C(Cc1cccc(-c2cccc(NC(=O)[C@@H]3CCCN3C(=O)OCc3ccccc3)c2)c1)NC1CC1
# output 68.6

----------
Recorded inhibition at 10 µM by entry
assay: Replicon Assay (luciferase, ET cell line)
Type: cell-based, HCV
experimental.conditions: Hepatitis C virus; % inhibition of replication relative to no compound control, test concentration of 10 μM; ET cells, luciferase read 48-72 hours; read-out: % inhib at 10 uM
Give your result in % as a bare value.

{"columns": ["compound", "measured.parameter", "reported.result"],
 "data": [
  ["O=C(Nc1cccc(-c2ccc([N+](=O)[O-])cc2)c1)[C@@H]1CCCN1C(=O)OCc1ccccc1 [Compound 6053]", "inhibition at 10 µM", 93.3],
  ["O=C1Nc2ccc(-c3cccc(NC(=O)[C@@H]4CCCN4C(=O)OCc4ccccc4)c3)cc2C1=O [Compound 6084]", "inhibition at 10 µM", 3.35],
  ["O=C(Nc1cccc(-c2ccc3ccccc3c2)c1)[C@@H]1CCCN1C(=O)OCc1ccccc1 [Compound 6044]", "inhibition at 10 µM", 73.2],
  ["Cc1cc2nc(Cc3ccc(NC(=O)[C@@H]4CCCN4C(=O)OCc4ccccc4)cc3)[nH]c2cc1C [Compound 6014]", "inhibition at 10 µM", 99.6]
]}

# input Return reported inhibition at 10 µM. Input compound: O=C(NC1CC1)c1ccc(-c2cccc(NC(=O)[C@@H]3CCCN3C(=O)OCc3ccccc3)c2)cc1 [Compound 6301]
# output 99.1
